# Test system: PC-9 cells (EGFR Ex19Del)
# Procedure summary: Potency Assay: pERK (SOS1 pERK IC50 Assay, AlphaLISA SureFire Ultra p-ERK1/2)
# Assay type: cell-based
# Measurement setup: Homo sapiens; PC-9 cells (EGFR Ex19Del), 1 hour incubation, AlphaLISA p-ERK1/2; read-out: SOS1 pERK IC50
pIC50: −log10 of the molar value.
Each record here notes measured pIC50.
Readout name: pIC50

INSERT INTO results (compound, readout_name, result) VALUES
  ('C[C@@H](Nc1nc(CO)nc2c1CN(C(=O)N1CCOCC1)C2)c1cc(N)cc(C(F)(F)F)c1', 'pIC50', '> 6.00'),
  ('C[C@@H](Nc1nc(Cl)nc2c1CN(C(=O)C13CC(C)(C1)OC31COC1)CC2)c1cc(N)cc(C(F)(F)F)c1', 'pIC50', '< 6.00'),
  ('C[C@@H](Nc1nc(Cl)nc2c1CN(C(=O)N1CC3CC(C1)N3C)C2)c1cccc(C(F)F)c1F', 'pIC50', '> 6.00'),
  ('COCC(F)(F)c1cccc([C@@H](C)Nc2nc(Cl)nc3c2CN(C(=O)C2(OC)CCOCC2)C3)c1', 'pIC50', '> 6.00'),
  ('C[C@@H](Nc1nc(Cl)nc2c1CN(C(=O)C1(C)CN(C)C1)C2)c1cc(N)cc(C(F)(F)F)c1', 'pIC50', '> 6.00'),
  ('C[C@@H](Nc1nc(Br)nc2c1CN(C(=O)N1CCOCC1)C2)c1cc(N)cc(C(F)(F)F)c1', 'pIC50', '> 6.00'),
  ('C[C@@H](Nc1nc(Cl)nc2c1CN(C(=O)N1CCS(=O)(=O)CC1)C2)c1cc(N)cc(C(F)(F)F)c1', 'pIC50', '> 6.00'),
  ('CC(CC(=O)N1Cc2nc(Cl)nc(N[C@H](C)c3cccc(C(F)F)c3F)c2C1)N1CCNCC1 (stereo partly drawn)', 'pIC50', '> 6.00'),
  ('COc1ccc2c(c1)OCCN2C(=O)N1Cc2nc(Cl)nc(N[C@H](C)c3cc(N)cc(C(F)(F)F)c3)c2C1', 'pIC50', '> 6.00'),
  ('C[C@@H](Nc1nc(Cl)nc2c1CN(C(=O)N1CCOCC1)C2)c1ccc2cc[nH]c2c1', 'pIC50', '< 6.00'),
  ('C[C@@H](Nc1ncnc2c1CN(C1CCOCC1)C(=O)N2C)c1cc(N)cc(C(F)(F)F)c1', 'pIC50', '> 6.00'),
  ('Cc1nc2c(c(N[C@H](C)c3cc(N)cc(C(F)(F)F)c3)n1)CCN(C(=O)N1CCOCC1)CC2', 'pIC50', '< 6.00'),
  ('C[C@@H](Nc1nc(Cl)nc2c1CN(C(=O)N1CCNC(=O)C1)C2)c1cccc(C(F)(F)F)c1', 'pIC50', '> 6.00'),
  ('C[C@@H]1CN(C(=O)N2Cc3nc(Cl)nc(N[C@H](C)c4cccc(C(F)F)c4F)c3C2)C[C@H](C)N1C', 'pIC50', '> 6.00'),
  ('C[C@@H](Nc1nc(Cl)nc2c1CN(C(=O)CC1CCN(C)C1)C2)c1cc(N)cc(C(F)(F)F)c1 (stereo partly drawn)', 'pIC50', '< 6.00');

====

Each record here notes measured pIC50.
# Measurement target: SOS1 catalytic domain (residues 564-1049) (Homo sapiens, UniProt Q07889)
# Procedure summary: Mode of Action Assay: inhibition of SOS1 nucleotide exchange activity (SOS1 TR-FRET IC50 Assay)
pIC50: −log10 of the molar value.
Readout name: pIC50

INSERT INTO assay_data (line_notation, result) VALUES
  ('C[C@@H](Nc1nc(Cl)nc2c1CN(C(=O)C1(F)CNC1)C2)c1cc(N)cc(C(F)(F)F)c1', '> 6.00'),
  ('C[C@@H](Nc1nc(Cl)nc2c1CN(C(=O)N1CCOCC1)C2)c1cccc2c1OCC2(F)F', '> 6.00'),
  ('C[C@@H](Nc1nc(Cl)nc2c1CN(C(=O)OC1CCOCC1)C2)c1cc(N)cc(C(F)(F)F)c1', '< 6.00'),
  ('C[C@@H](Nc1nc(Cl)nc2c1CN(C(=O)N1CC3CCC(C1)N3C1COC1)C2)c1cccc(C(F)F)c1F', '> 6.00');

====

# Test system: PC-9 cells (EGFR Ex19Del)
# Procedure summary: Potency Assay: pERK (SOS1 pERK IC50 Assay, AlphaLISA SureFire Ultra p-ERK1/2)
# Type: cell-based
# Measurement setup: Homo sapiens; PC-9 cells (EGFR Ex19Del), 1 hour incubation, AlphaLISA p-ERK1/2; read-out: SOS1 pERK IC50
pIC50: −log10 of the molar value.
Each record here notes measured pIC50.
Readout name: pIC50

INSERT INTO results (compound, readout_name, result) VALUES
  ('C[C@@H](Nc1nc(Cl)nc2c1CN(S(=O)(=O)N1CCOCC1)CC2)c1cc(N)cc(C(F)(F)F)c1 [Example 29]', 'pIC50', '> 6.00'),
  ('C[C@@H](Nc1nc(Cl)nc2c1CN(S(=O)(=O)C1CNC1)CC2)c1cc(N)cc(C(F)(F)F)c1 [Example 451]', 'pIC50', '> 6.00'),
  ('C[C@@H](Nc1nc(Cl)nc2c1CN(C(=O)N1CCCC13CCN(C)C3)C2)c1cccc(C(F)F)c1F (stereo partly drawn) [Example 413]', 'pIC50', '> 6.00'),
  ('Cc1c(C(C)Nc2nc(Cl)nc3c2CN(C(=O)N2CCOCC2)C3)cccc1C(F)(F)CO (stereo not drawn) [Example 507]', 'pIC50', '< 6.00'),
  ('C[C@@H](Nc1nc(Cl)nc2c1CN(C(=O)[C@@H]1COCCN1C)C2)c1cccc(C(F)F)c1F [Example 321]', 'pIC50', '> 6.00'),
  ('C[C@@H](Nc1nc(Cl)nc2c1CN(C(=O)C1(C#N)CCNCC1)C2)c1cccc(C(F)F)c1F [Example 294]', 'pIC50', '> 6.00'),
  ('CC(Nc1nc(Cl)nc2c1CN(C(=O)N1CCOCC1)C2)c1cccc(S(F)(F)(F)(F)F)c1 (stereo not drawn) [Example 462]', 'pIC50', '< 6.00'),
  ('C[C@@H](Nc1nc(Cl)nc2c1CN(C(=O)[C@@H]1COCCN1)C2)c1cccc(C(F)(F)F)c1 [Example 275]', 'pIC50', '< 6.00'),
  ('C[C@@H](Nc1nc(Cl)nc2c1CN(C(=O)C1(C)CN(C3COC3)C1)C2)c1cccc(C(F)F)c1F [Example 335]', 'pIC50', '> 6.00'),
  ('C[C@@H](Nc1nc(Cl)nc2c1CN(C(=O)C1(N)COC1)C2)c1cccc(C(F)F)c1F [Example 285]', 'pIC50', '> 6.00'),
  ('C[C@@H](Nc1nc(Cl)nc2c1CN(C(=O)C1CN(C3CCOC3)C1)C2)c1cccc(C(F)F)c1F (stereo partly drawn) [Example 295]', 'pIC50', '> 6.00'),
  ('C[C@@H](Nc1nc(Cl)nc2c1CN(C1CNC1)CC2)c1cccc(C(F)(F)F)c1 [Example 177]', 'pIC50', '< 6.00'),
  ('C[C@@H](Nc1nc(Cl)nc2c1CN(C(=O)N1CCOCC1)C2)c1cccc(C(F)(F)C2CCCO2)c1 (stereo partly drawn) [Example 491]', 'pIC50', '> 6.00'),
  ('C[C@@H](Nc1nc(Cl)nc2c1CN(C(=O)C1CCCN1c1ncccn1)CC2)c1cc(N)cc(C(F)(F)F)c1 (stereo partly drawn) [Example 200]', 'pIC50', '< 6.00'),
  ('COC(F)(F)c1cccc([C@@H](C)Nc2nc(Cl)nc3c2CN(C(=O)N2CCOCC2)C3)c1 [Example 475]', 'pIC50', '< 6.00');

====

# Measurement target: SOS1 catalytic domain (residues 564-1049) (Homo sapiens)
# Sequence (Q07889 564-1049): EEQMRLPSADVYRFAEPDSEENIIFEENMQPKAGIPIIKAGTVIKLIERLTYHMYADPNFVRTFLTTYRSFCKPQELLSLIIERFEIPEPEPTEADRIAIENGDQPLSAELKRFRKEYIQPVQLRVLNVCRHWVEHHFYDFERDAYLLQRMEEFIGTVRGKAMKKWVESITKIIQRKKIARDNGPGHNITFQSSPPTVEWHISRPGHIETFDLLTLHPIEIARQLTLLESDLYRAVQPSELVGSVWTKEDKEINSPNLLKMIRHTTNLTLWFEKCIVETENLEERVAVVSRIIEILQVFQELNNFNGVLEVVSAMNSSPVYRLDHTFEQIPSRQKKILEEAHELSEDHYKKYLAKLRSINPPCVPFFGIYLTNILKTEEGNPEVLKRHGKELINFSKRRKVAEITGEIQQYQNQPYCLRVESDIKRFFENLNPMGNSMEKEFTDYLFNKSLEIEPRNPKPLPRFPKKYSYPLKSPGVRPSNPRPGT
Readout name: Kd

INSERT INTO results (compound, readout_name, result) VALUES
  ('COC1(C(=O)N2Cc3nc(Cl)nc(N[C@H](C)c4cccc(C(F)F)c4F)c3C2)CN(C2COC2)C1', 'Kd', '< 400 nM'),
  ('C[C@@H](Nc1nc(Cl)nc2c1CN(C(=O)C13CCN(CC1)C3)C2)c1cccc(C(F)F)c1F', 'Kd', '< 400 nM'),
  ('C[C@@H](Nc1nc(Cl)nc2c1CN(S(=O)(=O)C1CCNCC1)CC2)c1cc(N)cc(C(F)(F)F)c1', 'Kd', '< 400 nM'),
  ('CCc1nc2c(c(N[C@H](C)c3cc(N)cc(C(F)(F)F)c3)n1)CN(C(=O)N1CCOCC1)C2', 'Kd', '< 400 nM'),
  ('CC(Nc1nc(Cl)nc2c1CN(C(=O)N1CCOCC1)C2)c1cccc(C(F)(F)CO)c1 (stereo not drawn)', 'Kd', '< 400 nM'),
  ('C[C@@H](Nc1nc(Cl)nc2c1CN(C(=O)c1cccc3c1OCCN3)C2)c1cc(N)cc(C(F)(F)F)c1', 'Kd', '> 400 nM'),
  ('C[C@@H](Nc1nc(Cl)nc2c1CN(C(=O)c1ccc3c(n1)OCCO3)C2)c1cc(N)cc(C(F)(F)F)c1', 'Kd', '> 400 nM'),
  ('COC1(C(=O)N2Cc3nc(Cl)nc(N[C@H](C)c4cccc(C(F)F)c4F)c3C2)CNC1', 'Kd', '< 400 nM'),
  ('COC1(C(=O)N2Cc3nc(Cl)nc(N[C@H](C)c4cccc(C(F)F)c4F)c3C2)CCOCC1', 'Kd', '< 400 nM'),
  ('COc1cccnc1C(=O)N1CCc2nc(Cl)nc(N[C@H](C)c3cc(N)cc(C(F)(F)F)c3)c2C1', 'Kd', '> 400 nM'),
  ('C[C@@H](Nc1nc(Cl)nc2c1CN(C(=O)N1CCN(C)CC(F)(F)C1)C2)c1cccc(C(F)F)c1F', 'Kd', '< 400 nM'),
  ('C[C@@H](Nc1nc(Cl)nc2c1CN(C(=O)[C@H]1CCOC[C@H]1N)C2)c1cccc(C(F)F)c1F', 'Kd', '< 400 nM'),
  ('C[C@@H](Nc1nc(Cl)nc2c1CN(C(=O)C1CCNCC1)C2)c1cc(N)cc(C(F)(F)F)c1', 'Kd', '< 400 nM'),
  ('Cc1nc2c(c(N[C@H](C)c3cc(N)cc(C(F)(F)F)c3)n1)CN(c1ccc(Br)cn1)CC2', 'Kd', '> 400 nM'),
  ('O=C(N1CCOCC1)N1Cc2nc(Cl)nc(NC(CF)c3cccc(C(F)(F)CO)c3)c2C1 (stereo not drawn)', 'Kd', '< 400 nM'),
  ('COc1ccc(S(=O)(=O)N2CCc3nc(Cl)nc(N[C@H](C)c4cc(N)cc(C(F)(F)F)c4)c3C2)cc1', 'Kd', '< 400 nM'),
  ('C[C@@H](Nc1nc(Cl)nc2c1CN(C(=O)c1cccnn1)CC2)c1cc(N)cc(C(F)(F)F)c1', 'Kd', '> 400 nM'),
  ('Cc1nc2c(c(N[C@H](C)c3cc(N)cc(C(F)(F)F)c3)n1)CN(C(=O)N1CC(O)C1)C2', 'Kd', '< 400 nM'),
  ('C[C@@H](Nc1nc(Cl)nc2c1C[C@@H](N1CCOCC1)CC2)c1cccc(C(F)F)c1F', 'Kd', '< 400 nM'),
  ('C[C@@H](Nc1nc(Cl)nc2c1CN(C(=O)N1C[C@H]3COC[C@H]3C1)C2)c1cc(N)cc(C(F)(F)F)c1', 'Kd', '< 400 nM'),
  ('C[C@@H](Nc1nc(Cl)nc2c1CN(C(=O)C1CCN(C)C1)C2)c1cccc(C(F)F)c1F (stereo partly drawn)', 'Kd', '< 400 nM'),
  ('C[C@@H](Nc1nc(Cl)nc2c1CN(C(=O)CN1CCOCC1)C2)c1cccc(C(F)F)c1F', 'Kd', '< 400 nM'),
  ('CC(=O)N1CCN(C(=O)N2Cc3nc(Cl)nc(N[C@H](C)c4cccc(C(F)(F)F)c4)c3C2)CC1', 'Kd', '< 400 nM'),
  ('C[C@@H](Nc1nc(Cl)nc2c1CN(C(=O)N1CCNCC(F)C1)C2)c1cccc(C(F)F)c1F (stereo partly drawn)', 'Kd', '< 400 nM'),
  ('C[C@@H](Nc1nc(Cl)nc2c1CC(N1CC3(COC3)C1)CC2)c1cccc(C(F)(F)CO)c1 (stereo partly drawn)', 'Kd', '< 400 nM'),
  ('CNC1(C(=O)N2Cc3nc(Cl)nc(N[C@H](C)c4cccc(C(F)F)c4F)c3C2)CCOC1 (stereo partly drawn)', 'Kd', '< 400 nM'),
  ('C[C@@H](Nc1nc(Cl)nc2c1CN(C(=O)C1CC1)CC2)c1cc(N)cc(C(F)(F)F)c1', 'Kd', '< 400 nM'),
  ('CNC(=O)N1Cc2nc(C)nc(N[C@H](C)c3cc(N)cc(C(F)(F)F)c3)c2C1', 'Kd', '> 400 nM'),
  ('C[C@@H](Nc1nc(Cl)nc2c1CN(C1CCOCC1)C2=O)c1cc(N)cc(C(F)(F)F)c1', 'Kd', '< 400 nM'),
  ('C[C@@H](Nc1nc(CNC2CC2)nc2c1CN(C(=O)N1CCOCC1)C2)c1cccc(C(F)F)c1F', 'Kd', '< 400 nM');
